test system: Staphylococcus aureus; assay: Antimicrobial activity against Staphylococcus aureus assessed as microbial growth inhibition incubated for 16 hrs under aerobic condition by microplate reader assay; type: functional
READOUT KIND: MIC (µM)

[[record]]
smiles_str = "COc1cc2cc[n+](C)c(Cc3ccc(Oc4cc(Cc5c6cc(OC)c(OC)cc6cc[n+]5C)ccc4O)cc3)c2cc1OC"
rel = ">"
obs_value = 100

[[record]]
smiles_str = "COc1cc2c(cc1OC)[C@@H](Cc1ccc(Oc3cc(Cc4c5cc(OC)c(OC)cc5cc[n+]4C)ccc3OC)cc1)N(C)CC2"
rel = "="
obs_value = 39.4

[[record]]
smiles_str = "COc1cc2cc[n+](C)c(Cc3ccc(OC)c(Oc4ccc(C=O)cc4)c3)c2cc1OC"
rel = ">"
obs_value = 100

[[record]]
smiles_str = "COc1cc2cc[n+](C)c(O)c2cc1OC"
rel = ">"
obs_value = 100

[[record]]
smiles_str = "COc1cc2cc[n+](C)c(Cc3ccc(Oc4cc(Cc5c6cc(OC)c(OC)cc6cc[n+]5C)ccc4OC)cc3)c2cc1OC"
rel = "="
obs_value = 9.9


Reference source: ChEMBL document CHEMBL4837187
